Cited source for all entries: patent US12496348B2

# Test system: Kelly Neuroblastoma cells
# PROTOCOL_DESCRIPTION: ATPlite Luminescence viability assay, Kelly neuroblastoma cells, 72 h
# Type: cell-based
# CONDITION_DETAILS: Kelly Neuroblastoma cells, ATPlite, class symbols, read-out: IC50 of inventive bispecific compounds
pIC50: −log10 of the molar value.
This section presents compounds with their documented pIC50 values.

compound="Cc1noc(C)c1-c1ccn2c(NC3CCCCC3)c(CCc3ccc(NC(=O)CCCCCNc4cccc5c4C(=O)N(C4CCC(=O)NC4=O)C5=O)cc3)nc2c1 (stereo not shown)" study_system="Kelly Neuroblastoma cells" measurement_name=pIC50 result="6.00 to 7.00"

Enter pIC50 (test system Kelly Neuroblastoma cells) for Cc1noc(C)c1-c1ccc2c(c1)nc([C@@H]1CCCC(=O)N1c1ccc(F)c(F)c1)n2[C@H]1CC[C@H](NC(=O)CCCCCNc2cccc3c2C(=O)N(C2CCC(=O)NC2=O)C3=O)CC1 (stereo partly shown)
6.00 to 7.00

State recorded pIC50 with Kelly Neuroblastoma cells, entry Cc1noc(C)c1-c1ccc2nc(-c3ccc(N4CCN(C(=O)CCOCCOCCOCCNc5cccc6c5C(=O)N(C5CCC(=O)NC5=O)C6=O)CC4)cc3)c(NC3CCCCC3)n2c1 (stereo not shown) , no comment.
> 7.00

Give pIC50; test system Kelly Neuroblastoma cells; compound Cc1noc(C)c1-c1ccc2c(c1)nc(CCc1ccc(NC(=O)CCCCCCCNc3cccc4c3C(=O)N(C3CCC(=O)NC3=O)C4=O)cc1)n2CC(C)N1CCOCC1 (stereo not shown)
< 5.00

Would you please give the reported pIC50 of Cc1ncsc1-c1ccc(CNC(=O)[C@H]2C[C@H](O)CN2C(=O)[C@H](NC(=O)COCCOCCOCCNC(=O)CCC(=O)Nc2ccc(CCc3nc4cc(-c5c(C)noc5C)ccn4c3NC3CCCCC3)cc2)C(C)(C)C)cc1 with Kelly Neuroblastoma cells?
< 5.00

# lookup: Kelly Neuroblastoma cells pIC50, key = Cc1noc(C)c1-c1ccn2c(NC3CCCCC3)c(CCc3ccc(NC(=O)C4CCC(Nc5cccc6c5C(=O)N(C5CCC(=O)NC5=O)C6=O)CC4)cc3)nc2c1 (stereo not shown)
5.00 to 6.00

Give pIC50 for Cc1noc(C)c1-c1ccn2c(NCc3ccccc3)c(-c3ccc(N4CCN(C(=O)CCOCCOCCOCCOCCOCCOCCNc5cccc6c5C(=O)N(C5CCC(=O)NC5=O)C6=O)CC4)cc3)nc2c1 (stereo not shown) tested on Kelly Neuroblastoma cells.
< 5.00

Output reported pIC50 of the compound Cc1noc(C)c1-c1ccc2c(c1)nc(CCc1ccc(NC(=O)CCOCCOCCOCCNc3cccc4c3C(=O)N(C3CCC(=O)NC3=O)C4=O)cc1)n2CC(C)N1CCOCC1 (stereo not shown) on Kelly Neuroblastoma cells.
< 5.00

Would you please give the reported pIC50 of Cc1noc(C)c1-c1ccn2c(NC3CCCCC3)c(CCc3ccc(NC(=O)CCOCCOCCOCCOCCOCCOCCNc4cccc5c4C(=O)N(C4CCC(=O)NC4=O)C5=O)cc3)nc2c1 (stereo not shown) with Kelly Neuroblastoma cells?
5.00 to 6.00

Would you please give the reported pIC50 of Cc1noc(C)c1-c1ccn2c(NC3CCCCC3)c(CCc3ccc(NC(=O)CCCCCNc4ccc5c(c4)C(=O)N(C4CCC(=O)NC4=O)C5=O)cc3)nc2c1 (stereo not shown) with Kelly Neuroblastoma cells?
5.00 to 6.00

For Kelly Neuroblastoma cells, give pIC50 of the listed compound: Cc1noc(C)c1-c1ccn2c(NC3CCCCC3)c(CCc3ccc(NC(=O)c4ccc(CNc5cccc6c5C(=O)N(C5CCC(=O)NC5=O)C6=O)cc4)cc3)nc2c1 (stereo not shown)
< 5.00

Retrieve pIC50 on Kelly Neuroblastoma cells; query Cc1noc(C)c1-c1ccn2c(NC3CCCCC3)c(CCc3ccc(NC(=O)CCCCCCCCCCCNC(=O)COc4cccc5c4C(=O)N(C4CCC(=O)NC4=O)C5=O)cc3)nc2c1 (stereo not shown)
< 5.00

Jot down pIC50 (Kelly Neuroblastoma cells) of Cc1noc(C)c1-c1ccc2c(c1)nc([C@@H]1CCCC(=O)N1c1ccc(F)c(F)c1)n2[C@H]1CC[C@H](NC(=O)CCCCCCCCCNc2cccc3c2C(=O)N(C2CCC(=O)NC2=O)C3=O)CC1 (stereo partly shown) .
> 7.00

Under Kelly Neuroblastoma cells, report pIC50 for COc1ccc(CCc2nc3cc(-c4c(C)noc4C)ccc3n2C[C@H](C)N2CCN(C(=O)CCCCCCCCCNc3ccc4c(c3)C(=O)N(C3CCC(=O)NC3=O)C4=O)CC2)cc1Cl (stereo partly shown)
< 5.00

# return pIC50 for Cc1noc(C)c1-c1ccc2c(c1)nc(CCc1ccc(NC(=O)CCCCCCCCCCCNC(=O)COc3cccc4c3C(=O)N(C3CCC(=O)NC3=O)C4=O)cc1)n2CCN1CCOCC1 (stereo not shown) , test system: Kelly Neuroblastoma cells
< 5.00
